# system.name: HASPIN (Homo sapiens (Human))
# Sequence (Q8TF76 whole entry): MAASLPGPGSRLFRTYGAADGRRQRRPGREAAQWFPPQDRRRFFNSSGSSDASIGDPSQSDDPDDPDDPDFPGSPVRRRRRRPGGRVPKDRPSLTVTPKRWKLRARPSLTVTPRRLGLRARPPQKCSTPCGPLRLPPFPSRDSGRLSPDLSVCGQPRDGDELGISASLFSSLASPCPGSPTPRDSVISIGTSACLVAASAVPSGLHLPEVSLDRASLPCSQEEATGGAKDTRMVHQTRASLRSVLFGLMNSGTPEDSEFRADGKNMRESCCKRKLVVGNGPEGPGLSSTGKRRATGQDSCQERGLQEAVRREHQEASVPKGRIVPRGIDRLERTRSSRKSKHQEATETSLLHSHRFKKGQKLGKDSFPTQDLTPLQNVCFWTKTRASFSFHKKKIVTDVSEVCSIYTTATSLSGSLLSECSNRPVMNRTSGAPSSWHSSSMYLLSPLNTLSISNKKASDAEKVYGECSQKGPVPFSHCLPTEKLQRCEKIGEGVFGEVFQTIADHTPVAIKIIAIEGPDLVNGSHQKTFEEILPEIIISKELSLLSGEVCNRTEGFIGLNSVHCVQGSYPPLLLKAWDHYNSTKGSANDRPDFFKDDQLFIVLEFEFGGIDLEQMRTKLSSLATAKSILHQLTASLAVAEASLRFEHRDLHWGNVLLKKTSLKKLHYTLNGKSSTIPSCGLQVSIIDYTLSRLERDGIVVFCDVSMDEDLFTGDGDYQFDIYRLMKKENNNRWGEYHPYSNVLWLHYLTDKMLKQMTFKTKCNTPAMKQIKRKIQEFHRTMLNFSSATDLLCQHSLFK
parameter.measured: IC50 (nM)
Hi! Could you send only the number? It should be in nM, unit omitted.

(Q) Any idea what IC50 came out for Cc1nc2c3c(c(NCC4(F)CCNCC4)nn2c1-c1ccnc(Cl)c1)C[C@@H](C)O3 (single isomer, unassigned) on HASPIN (Homo sapiens (Human))?
(A) 5.87

###

// values below are IC50; system is UniProt P11309
Sequence (P11309 whole entry, species assumed): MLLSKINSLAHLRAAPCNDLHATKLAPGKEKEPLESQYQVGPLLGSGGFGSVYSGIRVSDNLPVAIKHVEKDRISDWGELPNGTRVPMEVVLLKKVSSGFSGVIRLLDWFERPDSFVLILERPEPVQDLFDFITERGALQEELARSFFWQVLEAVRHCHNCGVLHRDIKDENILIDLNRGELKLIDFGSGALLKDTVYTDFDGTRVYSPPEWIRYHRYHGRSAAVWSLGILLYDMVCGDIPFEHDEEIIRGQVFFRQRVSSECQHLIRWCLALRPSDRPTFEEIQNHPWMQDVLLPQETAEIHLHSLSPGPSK
Unit nM implied. Number only.

Cc1nc2c3c(c(N4CCCC(CN)C4)nn2c1-c1ccnc(Cl)c1)CCCO3 (centres unmarked)    3400

(Q) Form field - read-out: IC50; system: UniProt P11309; submitted item: "Cc1nc2c3c(c(NCC4CCNCC4)nn2c1-c1ccnc(Cl)c1)N(C)CCO3"
(A) 1090

Value source: patent US20240199630A1
